The reported numbers originate from the supplement of paper PMC8671470.

# Test system: BV-173
# protocol description: cell viability (% survival relative to DMSO control, bortezomib = 0%); higher = less cytotoxic
# conditions used: 1000 nM; 72 h
Could you please mark Condition met for values of cell viability below 90% and Condition not met for values at or above it?

A selection of reference data follows.
>  <smiles code>
O=c1oc2c(O)c(O)cc3c(=O)oc4c(O)c(O)cc1c4c23

>  <class assignment>
Condition not met

$$$$
>  <smiles code>
CCCc1cc(-c2nc(-c3ccc(C)cc3)cs2)ccn1

>  <class assignment>
Condition not met

$$$$

Challenge: Criterion: cell viability strictly below 90%. Is it met by Nc1nc(Cl)nc2c1ncn2[C@H]1C[C@H](O)[C@@H](CO)O1 ?
Response given: Condition met

Challenge: Criterion: cell viability strictly below 90%. Is it met by CC(C)c1nc(CN(C)C(=O)N[C@H](C(=O)N[C@@H](Cc2ccccc2)C[C@H](O)[C@H](Cc2ccccc2)NC(=O)OCc2cncs2)C(C)C)cs1 ?
Response given: Condition met

###

# Tested on: myeloid leukemia patient primary cells Pat.2
# protocol description: cell viability (% survival relative to DMSO control); higher = less cytotoxic
# conditions used: 10 nM; 72 h
cell viability overview
Reply with just the number (in %).

>  <smiles code>
Oc1ccc(Nc2nc(-c3ccc(Cl)cc3)cs2)cc1

>  <assay readout>
cell viability

>  <quantitative readout>
95.9

$$$$

Challenge: Give measured cell viability for Cc1c(-c2ccc(-c3ccccc3F)cc2)nc2ccc(F)cc2c1C(=O)O (myeloid leukemia patient primary cells Pat.2).
Response given: 92.7

Challenge: Give measured cell viability for O=C(C1CC1)N1CC[C@@H](C=C2NNC(=O)N2c2ccc(-c3ccc4occc4c3)cc2)C1 (myeloid leukemia patient primary cells Pat.2).
Response given: 99

Challenge: Give measured cell viability for C=C(C=NNC(=N)N)NNC(=N)N (myeloid leukemia patient primary cells Pat.2).
Response given: 79.2

###

# Tested on: myeloid leukemia patient primary cells Pat.15
# protocol description: cell viability (% survival relative to DMSO control); higher = less cytotoxic
# conditions used: 10 nM; 72 h
assay readout: cell viability (%)
Reply with just the number (in %).

Challenge: Give a short answer stating reported cell viability for Nc1nc(Cl)nc2c1ncn2[C@H]1C[C@H](O)[C@@H](CO)O1 .
Response given: 82.7

Challenge: Give a short answer stating reported cell viability for COc1cc(/C=C/C(=O)N2CCC=CC2=O)cc(OC)c1OC .
Response given: 96.2

Challenge: Give a short answer stating reported cell viability for CCC(=O)N1CCN(c2ccc(-n3c(=O)ccc4cnc5ccc(-c6cnc7ccccc7c6)cc5c43)cc2C(F)(F)F)CC1 .
Response given: 55.9

Challenge: Give a short answer stating reported cell viability for O=C1O/C(=C/Br)CCC1c1cccc2ccccc12 (stereo unspecified) .
Response given: 91.6

Challenge: Give a short answer stating reported cell viability for C[C@H](NC(=O)c1sccc1OCc1ccc(Cl)cc1)c1ccccc1 .
Response given: 95.6

###

# System: ML-2
# protocol description: cell viability (% survival relative to DMSO control, bortezomib = 0%); higher = less cytotoxic
# conditions used: 10000 nM; 72 h
Could you please mark Yes for values of cell viability below 90% and No for values at or above it?

>  <compound>
Cc1cn([C@H]2C[C@H](O)[C@@H](COP(=O)(O)OP(=O)(O)O)O2)c(=O)[nH]c1=O [Thymidine diphosphate]

>  <class assignment>
No

$$$$
>  <compound>
C[C@](N)(Cc1ccc(O)cc1)C(=O)O [Metirosine]

>  <class assignment>
No

$$$$
>  <compound>
Oc1ccc(Nc2nc(-c3ccc(Cl)cc3)cs2)cc1 [SKI II]

>  <class assignment>
Yes

$$$$

We now examine a further compound.
Challenge: Criterion: cell viability strictly below 90%. Is it met by CCOP(=O)(OCC)C(=Cc1cc(C(C)(C)C)c(O)c(C(C)(C)C)c1)P(=O)(OCC)OCC ?
Response given: Yes
